Biological target: serotonin 1A receptor (Rattus norvegicus)
Construct: To the receptor fraction of the hippocampus were added a test compound and 0.5 nM of [^3H]; 8-hydroxy-dipropylaminotetralin; from tissue; host or cells: rat hippocampus membrane fraction
Sequence (P19327 1-422): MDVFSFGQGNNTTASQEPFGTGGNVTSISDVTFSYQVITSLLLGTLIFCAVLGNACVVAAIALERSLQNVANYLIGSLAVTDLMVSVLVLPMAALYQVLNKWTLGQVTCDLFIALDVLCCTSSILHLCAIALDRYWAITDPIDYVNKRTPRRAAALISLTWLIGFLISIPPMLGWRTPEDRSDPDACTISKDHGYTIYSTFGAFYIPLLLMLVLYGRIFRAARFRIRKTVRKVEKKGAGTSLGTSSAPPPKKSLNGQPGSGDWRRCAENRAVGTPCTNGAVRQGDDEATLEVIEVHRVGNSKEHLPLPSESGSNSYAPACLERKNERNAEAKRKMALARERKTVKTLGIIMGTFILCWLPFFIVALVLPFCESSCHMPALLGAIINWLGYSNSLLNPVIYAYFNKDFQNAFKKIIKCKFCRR
Assay: Binding test on [3H] 8-hydroxy-dipropylaminotetralin, hippocampus receptor fraction
Parameters: species or system SD rats
Conditions: rat hippocampus receptor fraction, 0.5 nM [3H] 8-OH-DPAT, room temperature 30 min; read-out: 5HT1
Where a name gives a salt, the structure may show the parent alone.
Returns the class for an entry based on its Ki. Class ranges: lo = under 9 nM, med = from 9 nM up to 50 nM, hi = 50 nM and over

The examples below pair each entry with its known result.
Compound	Label value
CCN1CCN(c2nc(-c3ccc(CC(C)CO)cc3)cc3ccsc23)CC1 (stereo not shown) [Example 441, dihydrochloride]	med
CCN1CCN(c2nc(-c3ccc(C(O)C4CCCCC4)cc3)cc3ccsc23)CC1 (stereo not shown) [Example 457, dihydrochloride]	hi
CCN1CCN(c2nc(-c3ccc(CCCOC(C)C)nc3)cc3ccccc23)CC1 [Example 143, Oxalate]	lo
CCN1CCN(c2nc(-c3ccc(OCC(C)(C)O)cc3)cc3ccccc23)CC1 [Example 309, dihydrochloride]	hi
CCN1CCN(c2nc(-c3ccc(OCCOC)c(OCCOC)c3)cc3ccccc23)CC1 [Example 43, Hydrochloride]	med
CCN1CCN(c2nc(-c3ccc(CO)c(CO)c3)cc3ccccc23)CC1 [Example 394, Dihydrochloride]	med

Next, consider the following compound.
[in] Determine which band this compound sits in: CCN1CCN(c2nc(-c3ccc(OC)c(CCCO)c3)cc3ccsc23)CC1 [Example 261, Oxalate]
[out] hi

---

Target: serotonin 1A receptor (Rattus norvegicus, UniProt P19327)
Construct: To the receptor fraction of the hippocampus were added a test compound and 0.5 nM of [^3H]; 8-hydroxy-dipropylaminotetralin; from tissue; host or cells: rat hippocampus membrane fraction
Test: Binding test on [3H] 8-hydroxy-dipropylaminotetralin, hippocampus receptor fraction
Set-up: species or system SD rats
Conditions: rat hippocampus receptor fraction, 0.5 nM [3H] 8-OH-DPAT, room temperature 30 min; read-out: 5HT1
Structures can show the parent of a compound that is named as a salt.
Ki strictly under 20 nM means Satisfied; at 20 nM or over means Not satisfied.

The examples below pair each entry with its known result.
Molecule	Label value
CCC#Cc1ccc(-c2cc3ccccc3c(N3CCN(CC)CC3)n2)cn1	Not satisfied
CCN1CCN(c2nc(-c3ccc(CCCO)cc3)cc3ccccc23)CC1 [Example 20, hydrochloride]	Satisfied
CN1CCN(c2nc(-c3ccc(OCCO)cc3)cc3ccsc23)CC1 [Example 253, Hydrochloride]	Not satisfied
CCN1CCN(c2nc(-c3ccc(S(=O)(=O)N(CC)CC)cc3)cc3ccccc23)CC1 [Example 359, dihydrochloride]	Satisfied
CCN1CCN(c2nc(-c3ccc(N4CCC(OC)CC4)cc3)cc3ccccc23)CC1 [Example 98, Trihydrochloride]	Not satisfied
CCN1CCN(c2nc(-c3ccc(OC)nc3)cc3ccccc23)CC1	Satisfied

[in] Say whether its Ki is strictly beneath 20 nM. Entry: `CCN1CCN(c2nc(-c3ccc(CCCCO)nc3)cc3ccccc23)CC1`
[out] Satisfied

---

Target: α1 adrenalin receptor
Experiment: Binding test on [3H] prazosin, cerebral cortex receptor fraction
Conditions: rat cerebral cortex receptor fraction, about 0.2 nM [3H] prazosin, room temperature 60 min; read-out: α 1
Structures can show the parent of a compound that is named as a salt.
Recorded metric: Ki (nM)
The figure you give is taken to be in nM; do not add the unit.

The examples below pair each entry with its known result.
Compound	Result number
CCCNC(=O)c1ccc(-c2cc3ccccc3c(N3CCN(CC)CC3)n2)cc1 [Example 63, Hydrochloride]	252
CCN1CCN(c2nc(-c3ccccn3)cc3ccccc23)CC1 [Example 123, Dihydrochloride]	553

--- query ---
[in] Please report the recorded Ki for CCN1CCN(c2nc(-c3ccc(CCCO)cc3)cc3ccccc23)CC1 [Example 20, hydrochloride] .
[out] 868

---

Target: α1 adrenalin receptor
Experiment: Binding test on [3H] prazosin, cerebral cortex receptor fraction
Details: rat cerebral cortex receptor fraction, about 0.2 nM [3H] prazosin, room temperature 60 min; read-out: α 1
Counter-ions that a name gives are not always drawn.
# log10 Ki listing for each entry below
Short version: log10 scale, Ki, µM.

The examples below pair each entry with its known result.
Molecule	Result number
CCN1CCN(c2nc(C#Cc3ccccc3OCCO)cc3ccccc23)CC1	-0.01
CCC(O)c1ccc(-c2cc3ccccc3c(N3CCN(CC)CC3)n2)cc1 (centres unmarked) [Example 19, hydrochloride]	-0.43
CCN1CCN(c2nc(-c3ccc(OCCO)cc3)cc3ccsc23)CC1 [Example 259, Hydrochloride]	-0.39
CCN1CCN(c2nc(NCc3ccc(OC)cc3)cc3ccccc23)CC1 [Example 220, oxalate]	0.58
CCN1CCN(c2nc(-c3ccc(CCCCO)cc3)cc3ccccc23)CC1 [Example 23, hydrochloride]	0.10

[in] Hello, I am looking for reported log10 Ki with α1 adrenalin receptor for CCCCS(=O)(=O)Nc1ccc(-c2cc3ccccc3c(N3CCN(CC)CC3)n2)cc1 [Example 73, Hydrochloride] . Could you help?
[out] -0.16

[in] Hello, I am looking for reported log10 Ki with α1 adrenalin receptor for CCN1CCN(c2nc(-c3ccc(OC)cc3OC)cc3ccccc23)CC1 [Example 12, Dihydrochloride] . Could you help?
[out] 0.61

---

# melting point listing for each entry below
Structures can show the parent of a compound that is named as a salt.

The examples below pair each entry with its known result.
Compound	Recorded metric	Result
CCC(=O)NCc1ccc(-c2cc3ccccc3c(N3CCN(CC)CC3)n2)cc1 (as salt: hydrochloride) [Example 85]	melting point	171 to 174 °C
CCNS(=O)(=O)c1ccc(-c2cc3ccccc3c(N3CCN(CCO)CC3)n2)cc1 (as salt: oxalate)	melting point	172 to 174 °C
CCN1CCN(c2nc(-c3ccc(C(C)O)cc3)cc3sccc23)CC1 (centres unmarked) (as salt: oxalate) [Example 281]	melting point	134 to 135 °C

[in] Please report the recorded melting point for CCN1CCN(c2nc(-c3ccc(OC)cc3)c(OC)c3ccccc23)CC1 (as salt: hydrochloride) [Example 221, dihydrochloride] .
[out] 227 to 235 °C

[in] Please report the recorded melting point for COc1ccc(-c2cc3ccccc3c(NCCN3CCOCC3)n2)cc1 (as salt: hydrochloride) [Example 323, dihydrochloride] .
[out] 135 to 136 °C

---

serotonin 2 receptor (Rattus norvegicus) measurements of Ki, listed per entry.
Structures can show the parent of a compound that is named as a salt.
The figure you give is taken to be in nM; do not add the unit.

[in] Hello, I am looking for reported Ki with serotonin 2 receptor (Rattus norvegicus) for CCCS(=O)(=O)c1ccc(-c2cc3ccccc3c(N3CCN(CC)CC3)n2)cc1 [Example 349, dihydrochloride] . Could you help?
[out] 5

[in] Hello, I am looking for reported Ki with serotonin 2 receptor (Rattus norvegicus) for CCN1CCN(c2nc(-c3ccc([C@@H]4C[C@H](O)CCO4)cc3)cc3ccsc23)CC1 (relative stereo) [Example 454, dihydrochloride] . Could you help?
[out] 26.5

[in] Hello, I am looking for reported Ki with serotonin 2 receptor (Rattus norvegicus) for CCCN(C)S(=O)(=O)c1ccc(-c2cc3ccccc3c(N3CCN(CC)CC3)n2)cc1 [Example 358, dihydrochloride] . Could you help?
[out] 19.1

---

serotonin 2 receptor (Rattus norvegicus, UniProt P14842) measurements of pKi, listed per entry.
Sequence (P14842 whole entry): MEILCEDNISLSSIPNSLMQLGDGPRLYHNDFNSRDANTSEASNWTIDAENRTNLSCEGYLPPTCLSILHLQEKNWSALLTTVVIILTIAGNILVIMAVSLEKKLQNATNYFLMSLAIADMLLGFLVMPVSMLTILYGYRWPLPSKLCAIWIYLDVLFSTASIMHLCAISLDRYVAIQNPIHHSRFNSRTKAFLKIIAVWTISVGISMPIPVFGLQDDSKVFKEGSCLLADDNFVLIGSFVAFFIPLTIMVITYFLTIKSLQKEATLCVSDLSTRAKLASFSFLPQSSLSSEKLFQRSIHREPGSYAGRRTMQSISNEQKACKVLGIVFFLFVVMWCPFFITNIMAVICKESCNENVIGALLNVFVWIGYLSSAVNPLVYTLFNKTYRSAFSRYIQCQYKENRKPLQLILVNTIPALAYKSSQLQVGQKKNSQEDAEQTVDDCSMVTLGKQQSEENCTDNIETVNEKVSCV
Structures can show the parent of a compound that is named as a salt.
Lab note: report pKi as minus log10 of the concentration in molar units, number only.

[in] Hello, I am looking for reported pKi with serotonin 2 receptor (Rattus norvegicus, UniProt P14842) for CCN1CCN(c2nc(-c3ccc(OC)cc3)cc3cccnc23)CC1 [Example 244, Hydrochloride] . Could you help?
[out] 7.10

[in] Hello, I am looking for reported pKi with serotonin 2 receptor (Rattus norvegicus, UniProt P14842) for CCN1CCN(c2nc(-c3cccc(OCCO)c3)cc3ccsc23)CC1 [Example 258, Dihydrochloride] . Could you help?
[out] 7.45

[in] Hello, I am looking for reported pKi with serotonin 2 receptor (Rattus norvegicus, UniProt P14842) for CCN1CCN(c2nc(-c3ccc(S(=O)(=O)N4CCOCC4)cc3)cc3ccccc23)CC1 [Example 75, Hydrochloride] . Could you help?
[out] 8.00
